meta.source: the supplement of paper PMC10065799

Tested on: c-Src
Experiment: phosphorylation enrichment, bacterial display (enrichment ratio); higher = better substrate or ligand; peptides without Tyr show the background;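 further: 11-residue human phosphosite peptides and single-mutation variants displayed on the E. coli surface, counted by deep sequencing, each peptide's frequency after selection divided by its frequency in the unselected input library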;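 further: frequency after pTyr selection over input frequency; kinase dosed for 20-30% of maximal phosphorylation in three min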
Each record's phosphorylation enrichment is compared with bin 0 = under 0.5, bin 1 = from 0.5 up to 0.7, bin 2 = 0.7 and over to give its class.

Worked examples follow.
DLVRPYVHKIL [SF3B1_Y570] ... bin 0
YRQNVYIPGSN [PCDHGA1_Y895] ... bin 0
PDSVDYPKKGF [CTSK_Y121_R122P_YF] ... bin 2
LTFPDYLPCSV [SAG_Y129] ... bin 1
GSRGKYSSGFH [ATM_Y332_R337H] ... bin 0
GVIRHYVVCST [BTK_Y334] ... bin 0
SFLSYYTSHVQ [NEFL_Y443_P440L] ... bin 2
DAAEDYAEGVR [DHODH_Y194] ... bin 0
KDIENHIQDGK [RAD50_Y964_Y964H] ... bin 0
PLDGEYSTLQI [TP53_Y327_F328S] ... bin 2

Read the next record carefully.
Enquiry: Which phosphorylation enrichment band matches RQQQDYWLKDV [ANPEP_Y600_I603K] ?
Return: bin 1

---

Molecular target: EPHB2 (UniProt P29323)
Sequence (P29323 whole entry, looked up): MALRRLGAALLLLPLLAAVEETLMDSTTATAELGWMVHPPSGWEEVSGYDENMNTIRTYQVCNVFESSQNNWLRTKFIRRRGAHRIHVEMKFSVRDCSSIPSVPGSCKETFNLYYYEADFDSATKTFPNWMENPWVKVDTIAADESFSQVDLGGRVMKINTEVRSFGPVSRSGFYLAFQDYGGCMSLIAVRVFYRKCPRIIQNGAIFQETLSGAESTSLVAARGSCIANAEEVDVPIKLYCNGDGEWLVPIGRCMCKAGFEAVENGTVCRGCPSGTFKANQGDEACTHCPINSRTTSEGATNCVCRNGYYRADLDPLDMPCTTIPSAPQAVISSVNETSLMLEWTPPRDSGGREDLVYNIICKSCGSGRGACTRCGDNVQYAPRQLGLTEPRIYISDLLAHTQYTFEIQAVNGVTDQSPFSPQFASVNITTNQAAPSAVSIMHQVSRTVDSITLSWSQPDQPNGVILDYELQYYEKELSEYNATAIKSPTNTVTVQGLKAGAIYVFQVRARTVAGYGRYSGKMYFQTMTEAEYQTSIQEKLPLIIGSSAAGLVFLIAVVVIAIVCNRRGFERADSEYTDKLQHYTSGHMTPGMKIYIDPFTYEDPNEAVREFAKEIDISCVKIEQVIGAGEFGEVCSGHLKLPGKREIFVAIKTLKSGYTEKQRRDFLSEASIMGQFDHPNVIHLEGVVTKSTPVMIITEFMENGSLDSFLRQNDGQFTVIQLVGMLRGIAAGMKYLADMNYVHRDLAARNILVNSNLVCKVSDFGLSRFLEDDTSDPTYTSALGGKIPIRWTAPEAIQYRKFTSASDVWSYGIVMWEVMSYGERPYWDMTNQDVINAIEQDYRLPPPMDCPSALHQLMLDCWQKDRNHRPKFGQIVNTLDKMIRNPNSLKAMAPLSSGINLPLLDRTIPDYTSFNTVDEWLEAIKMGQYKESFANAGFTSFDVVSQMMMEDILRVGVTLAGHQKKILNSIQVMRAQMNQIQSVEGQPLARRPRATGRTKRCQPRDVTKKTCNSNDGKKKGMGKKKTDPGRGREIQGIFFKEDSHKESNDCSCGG
Experiment: phosphorylation enrichment, bacterial display (enrichment ratio); higher = better substrate or ligand; peptides without Tyr show the background
Label 1 (yes) when phosphorylation enrichment >= 0.6; otherwise 0 (no).

Enquiry: Determine whether measured phosphorylation enrichment meets or exceeds 0.6 for STDDGYIDLQF [TMEM230_Y29]
Return: 0 (no)

Enquiry: Proceed to GSRGKYSSGFH [ATM_Y332_R337H]
Return: 0 (no)

Enquiry: Proceed to KPVDTYYDSTR [DYNC2H1_Y2230_M2227V]
Return: 0 (no)

Enquiry: Proceed to FDDIAHIRKTL [PIK3CA_Y1021_Y1021H]
Return: 0 (no)

Enquiry: Proceed to IRSGIYYKPES [L2HGDH_Y102_H98R]
Return: 1 (yes)

Enquiry: Proceed to DRLASDLDKVR [KRT10_Y160_Y160D]
Return: 0 (no)

Enquiry: Proceed to AQMAMYFWEMS [TRPM4_Y577_G582S]
Return: 1 (yes)

Enquiry: Proceed to APSHAYHRGVL [ANO1_Y981_G983R]
Return: 0 (no)

Enquiry: Proceed to NGTVTYAIVAG [CDH23_Y1672]
Return: 1 (yes)

Enquiry: Proceed to KKFVPYFDLFM [IPO5_Y530_E525K_YF]
Return: 1 (yes)

Enquiry: Proceed to TENAGYYFRVS
Return: 1 (yes)

Enquiry: Proceed to PTTKSYFPHFD [HBA1_Y43_T42S]
Return: 0 (no)

Enquiry: Proceed to HNLPIYEGFAL [ACTA1_Y168_V165L_YF]
Return: 1 (yes)

---

Biological target: Fyn (UniProt P06241)
Sequence (P06241 whole entry, looked up): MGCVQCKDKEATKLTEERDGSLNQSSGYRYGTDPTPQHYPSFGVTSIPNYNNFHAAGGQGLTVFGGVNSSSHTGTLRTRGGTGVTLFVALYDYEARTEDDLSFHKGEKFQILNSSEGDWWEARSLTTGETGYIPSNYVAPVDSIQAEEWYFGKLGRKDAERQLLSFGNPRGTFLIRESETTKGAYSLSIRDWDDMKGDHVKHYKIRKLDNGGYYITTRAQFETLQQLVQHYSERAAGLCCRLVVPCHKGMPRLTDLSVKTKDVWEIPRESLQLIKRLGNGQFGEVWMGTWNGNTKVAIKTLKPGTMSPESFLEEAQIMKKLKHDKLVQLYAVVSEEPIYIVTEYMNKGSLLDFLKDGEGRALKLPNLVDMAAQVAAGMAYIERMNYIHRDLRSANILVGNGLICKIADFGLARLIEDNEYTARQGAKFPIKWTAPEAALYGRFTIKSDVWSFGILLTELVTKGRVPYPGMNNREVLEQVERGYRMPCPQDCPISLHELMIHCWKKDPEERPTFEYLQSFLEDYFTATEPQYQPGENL
Test: phosphorylation enrichment, bacterial display (enrichment ratio); higher = better substrate or ligand; peptides without Tyr show the background
PROPERTY: phosphorylation enrichment
Give the figure only, with no unit attached.

KNKLNYTLPQD [NRAP_Y523] ... 0.372

Enquiry: Record request: phosphorylation enrichment value, item KPNMNYDKLSR [FLI1_Y332]
Return: 0.342

Enquiry: Proceed to APSHAYHRGVL [ANO1_Y981_G983R]
Return: 0.424

Enquiry: Proceed to PLGVLYKVKVF [PTS_Y128_V124L_YF]
Return: 0.801

Enquiry: Proceed to LHRHAYPEQQQ [DPPA2_Y127_R131Q]
Return: 0.824

Enquiry: Proceed to VPLATYMQIFK [RPL21_Y30_R32Q_YF]
Return: 0.887

Enquiry: Proceed to ERQIRYLNHQL [CEP152_Y268]
Return: 0.396

Enquiry: Proceed to RLVTRYIFNRE [HLA-DQB1_Y62_Y58L_YF]
Return: 0.553

Enquiry: Proceed to FADIAYNYRHA [PAH_Y166_G171A]
Return: 0.425

Enquiry: Proceed to TKYVAYIESQG [KDM4B_Y34_N29T]
Return: 0.546
